Origin of values: PubChem BioAssay AID1159580

Recorded normalized growth for the following compounds
Protocol Details: chemical genetic growth profiling, strain panel (AID 1159580);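 note: tested at 20 µM; growth read once vehicle control cultures reached saturation at 30 °C; 1 = growth at the plate median or of vehicle wells; lower values mean less growth of the strain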
Measurement Parameters: S. cerevisiae deletion strains, growth OD, locus YBR171W, strain sec66, active compounds read low
Out of some 5,500 compounds screened, about 2,000 (36%) were called active. About 18% were inconclusive and are not listed. Some of the results follow. Where a SMILES comes first, the peptide text is derived from it.
Property Label: normalized growth

Compound: CC1CC[C@@]2(OC1)O[C@H]1CC3C4CC[C@@H]5C[C@@H](O)CC[C@]5(C)C4CC[C@]3(C)[C@H]1[C@@H]2C (stereo partly specified)
Experimental Result: 1.04
//
Compound: O=C(O)C1=C[C@@H](O)[C@@H](O)[C@H](O)C1
Experimental Result: 0.985
//
Compound: CC(C)c1c(O)ccc2c1CCC1[C@@](C)(C=O)CCC[C@]21C (stereo partly specified)
Experimental Result: 0.97
//
Compound: COC(=O)[C@H](Cc1ccccc1)NC(=O)[C@@H](N)CC(=O)O (H-Asp-Phe-OMe)
Experimental Result: 1.02
//
Compound: COc1c2ccoc2cc2oc(=O)ccc12
Experimental Result: 0.954
//
Compound: C[C@@H]1CC[C@@]2(OC1)O[C@H]1CC3C4CC[C@H]5C[C@@H](O)CC[C@]5(C)C4CC[C@]3(C)[C@H]1[C@@H]2C (stereo partly specified)
Experimental Result: 0.994
//
Compound: C[C@@H]1CC[C@@]2(NC1)O[C@H]1C[C@H]3C4CC=C5C[C@@H](O)CC[C@]5(C)C4CC[C@]3(C)C1[C@@H]2C (stereo partly specified)
Experimental Result: 0.0867
//
Compound: CCOC(=O)c1c(C)cc(O)cc1O
Experimental Result: 0.904
//
Compound: CC(=O)Oc1ccc2c(c1C(C)C)CCC1C(C)(C)CCC[C@]21C (stereo partly specified)
Experimental Result: 1.03
//
Compound: COC1=CC(=O)C(O)=C/C1=C\C=C\c1ccccc1
Experimental Result: 0.0792
//
Compound: O=C(OC1Cc2c(O)cc(O)cc2OC1c1cc(=O)c(O)c2c(O)c(O)cc(C3Oc4cc(O)cc(O)c4CC3O)c2c1)c1cc(O)c(O)c(O)c1 (stereo unspecified)
Experimental Result: 0.972
//
Compound: COc1cc(OC)c2c(=O)c(OC)c(-c3ccc(OC)c(OC)c3)oc2c1
Experimental Result: 1.04
//
Compound: C=C1CCC2(OC1)OC1CC3C4CC=C5CC(O)CC(O)C5(C)C4CCC3(C)C1C2C (stereo unspecified)
Experimental Result: 1.01
//
Compound: NC(=NCCC[C@H](N)C(=O)O)N[N+](=O)[O-]
Experimental Result: 1.03
//
Compound: CC(=O)OCC1=C(C(=O)O)N2C(=O)[C@@H](NC(=O)Cc3cccs3)[C@H]2SC1
Experimental Result: 1.02
//
Compound: CN(C)c1ccc2nc3ccc(=[N+](C)C)cc-3sc2c1
Experimental Result: 1.08
//
Compound: CO[C@@]1(NC(=O)C(C(=O)O)c2ccc(O)cc2)C(=O)N2C(C(=O)O)=C(CSc3nnnn3C)CO[C@@H]21 (stereo partly specified)
Experimental Result: 0.984
//
Compound: C[C@@H]1O[C@@H](OC[C@H]2OC(Oc3c(-c4ccc(OCCO)c(OCCO)c4)oc4cc(OCCO)cc(O)c4c3=O)[C@H](O)[C@@H](O)[C@@H]2O)[C@H](O)[C@H](O)[C@H]1O (stereo partly specified)
Experimental Result: 0.945
//
Compound: O=C1C=C2C(=CCOC2O)O1 (stereo unspecified)
Experimental Result: 0.672
//
Compound: OC1CC2CCCC(C1)N2Cc1ccccc1 (stereo unspecified)
Experimental Result: 0.987
//
Compound: O=c1c(O)c(-c2ccc(O)c(O)c2)oc2c(O)c(O)cc(O)c12
Experimental Result: 1.02
//
Compound: COc1cc(OC)c2ccc(=O)oc2c1
Experimental Result: 0.972
//
Compound: CCOC(=O)c1c(C)cc(OC)cc1O
Experimental Result: 0.934
//
Compound: C=CC1C2=CCOC(=O)C2=COC1OC1OC(CO)C(O)C(O)C1O (stereo unspecified)
Experimental Result: 1.02
//
Compound: CC(C)(C)NCC(O)c1cc(Cl)c(N)c(Cl)c1 (stereo unspecified)
Experimental Result: 1
//
Compound: COc1ccccc1/C=C\C(=O)O
Experimental Result: 0.996
//
Compound: CC(CC(O)C1OC1(C)C)[C@@H]1CCC2(C)C3=CCC4C(C)(C)C(=O)CCC4(C)C3CC[C@@]12C (stereo partly specified)
Experimental Result: 0.999
//
Compound: COc1cc(O)c2c(=O)c(O)c(-c3ccc(O)c(O)c3)oc2c1
Experimental Result: 0.932
//
Compound: COC(=O)c1c(C)cc(O)cc1O
Experimental Result: 1
//
Compound: COc1cc2occc2c2oc(=O)ccc12
Experimental Result: 1.02
//
Compound: O=C(O[C@@H]1Cc2c(O)cc(O)cc2O[C@@H]1c1cc(O)c(=O)c2c(O)c(O)cc([C@H]3Oc4cc(O)cc(O)c4C[C@H]3OC(=O)c3cc(O)c(O)c(O)c3)c2c1)c1cc(O)c(O)c(O)c1
Experimental Result: 0.918
//
Compound: COC(=O)[C@@]1(C)CCC[C@]2(C)c3ccc(O)c(C(C)C)c3CCC12 (stereo partly specified)
Experimental Result: 0.946
//
Compound: CC(C)c1c(O)c(-c2cc3c(c(C(C)C)c2O)CCC2C(C)(C)CCC[C@]32C)cc2c1CCC1C(C)(C)CCC[C@]21C (stereo partly specified)
Experimental Result: 0.976
//
Compound: CCN(Cc1ccncc1)C(=O)C(CO)c1ccccc1 (stereo unspecified)
Experimental Result: 1.04
//
Compound: CC(C1OC(C)(C)C(O)C1O)[C@@H]1CC[C@]2(C)C3=CCC4C(C)(C)C(=O)CC[C@]4(C)C3CC[C@@]12C (stereo partly specified)
Experimental Result: 0.985
//
Compound: CCC(=O)c1c(O)cc(O)cc1O
Experimental Result: 0.979
//
Compound: Cc1[nH]ccc2c1[nH]c1cc(=O)ccc12
Experimental Result: 0.999
//
Compound: CNC(C)C(O)c1ccccc1 (stereo unspecified)
Experimental Result: 1.02
//
Compound: C=C(C)[C@H]1COc2cc3oc(=O)ccc3cc2O1
Experimental Result: 0.938
//
Compound: O=c1ccc2c(O)c3ccoc3cc2o1
Experimental Result: 0.983
//
Compound: CCOCN(C(=O)CCl)c1c(C)cccc1CC
Experimental Result: 0.971
